tested on: absorption of sodium from the intestinal lumen; experiment: Inhibition of intestinal sodium absorption: urinary sodium (uNa) 16 h after single oral dose in rats; assay type: in vivo, rat; settings: oral gavage, dose 10 mg/kg, 16 h post-dose
Binary label based on Urine Na % of control with cut-off 30%: below gives YES, not below gives NO.

The examples below pair each entry with its known result.
C/C(=C\c1cc(F)c(Oc2ccc(S(=O)(=O)NCCOCCOCCOCCNC(=O)CN(C)CC(=O)NCCOCCOCCOCCNS(=O)(=O)c3ccc(Oc4c(F)cc(/C=C(\C)C(=O)N=C(N)N)cc4F)cc3)cc2)c(F)c1)C(=O)N=C(N)N | NO
CN(C)[C@H]1Cc2c(Cl)cc(Cl)cc2[C@@H]1Oc1ccc(S(=O)(=O)NCCOCCOCCNC(=O)C(C)(C)C(=O)NCCOCCOCCNS(=O)(=O)c2ccc(O[C@H]3c4cc(Cl)cc(Cl)c4C[C@@H]3N(C)C)cc2)cc1 | NO
CN(C)[C@H]1Cc2c(Cl)cc(Cl)cc2[C@@H]1Oc1ccc(S(=O)(=O)NCCOCCOCCNC(=O)NCCCCNC(=O)NCCOCCOCCN(C)S(=O)(=O)c2ccc(O[C@H]3c4cc(Cl)cc(Cl)c4C[C@@H]3N(C)C)cc2)cc1 | NO

Strictly below 30%: is that where Urine Na % of control of N=C(N)Nc1nc(-c2ccc(OCCOCCOCCOCCNC(=O)NCCOCCOCCNC(=O)CN(CCN(CC(=O)O)CC(=O)NCCOCCOCCNC(=O)NCCOCCOCCOCCOc3ccc(-c4nc(NC(=N)N)nc5ccc(Cl)cc45)cc3)CC(=O)O)cc2)c2cc(Cl)ccc2n1 sits?
NO

# TODO verify Urine Na % of control < 30% strictly for this compound: CN1Cc2c(Cl)cc(Cl)cc2[C@H](c2cccc(S(=O)(=O)NCCOCCOCCNC(=O)NCCC[N+](C)(CCCNC(=O)NCCOCCOCCNS(=O)(=O)c3cccc([C@@H]4CN(C)Cc5c(Cl)cc(Cl)cc54)c3)CCCNC(=O)NCCOCCOCCNS(=O)(=O)c3cccc([C@@H]4CN(C)Cc5c(Cl)cc(Cl)cc54)c3)c2)C1
YES

Consider the compound CCC(=O)NCCOCCOCCOCCNS(=O)(=O)c1cccc([C@@H]2CN(C)Cc3c(Cl)cc(Cl)cc32)c1 . Is its Urine Na % of control strictly less than 30%?
NO

In the record for CN1Cc2c(Cl)cc(Cl)cc2[C@H](c2cccc(S(=O)(=O)NCCOCCOCCNC(=O)CN(CCN(CC(=O)O)CC(=O)NCCOCCOCCNS(=O)(=O)c3cccc([C@@H]4CN(C)Cc5c(Cl)cc(Cl)cc54)c3)CC(=O)O)c2)C1 , is Urine Na % of control less than 30%?
YES

These data points were gathered from patent US20240366589A1.
